System: Plasmodium falciparum
Experiment: GSK_TCMDC: Inhibition of Plasmodium falciparum Dd2 in whole red blood cells, using parasite LDH activity as an index of growth. Test compounds present at 2uM
Format: functional
Could you mark each record Met if its Inhibition falls strictly under 80%, and Not met if it equals or exceeds it?

# TODO verify Inhibition < 80% strictly for this molecule: CCNc1cc(C(=O)N[C@@H](Cc2ccccc2)[C@H](O)CNCc2cccc(OC)c2)c(OC)c(N2CCCCS2(=O)=O)c1
Not met

# TODO verify Inhibition < 80% strictly for this molecule: Cc1cc(=O)c(-c2ccc(Oc3cccc(Cl)c3)cc2)c(C)[nH]1
Not met

# TODO verify Inhibition < 80% strictly for this molecule: O=C(Nc1ccc(Cl)cc1)Nc1cccc(-c2ccc(-c3nc4cc(F)ccc4[nH]3)cc2)c1
Not met

---

Tested on: Plasmodium falciparum
Assay: GSK_TCMDC: Inhibition of Plasmodium falciparum 3D7 in whole red blood cells, using parasite LDH activity as an index of growth. Test compounds present at 2uM
Type: functional
propertyMeasured: Inhibition (%)
Provide only the numeric value, understood in %.

Guide cases for Inhibition, answers given:
>  <compound>
CN1CCC(NCc2ccc(-c3ccc(S(=O)(=O)NC4CCC4)s3)cc2)CC1.O=C(O)C(F)(F)F

>  <unitsSymbol>
%

>  <Inhibition>
92

$$$$
>  <compound>
O=C(/C=C/c1ccc(C(F)(F)F)cc1)NCCCCCN1CCN(C(=O)Nc2ccc(F)c(Cl)c2)CC1

>  <unitsSymbol>
%

>  <Inhibition>
89

$$$$
>  <compound>
CC(=O)Oc1c(Cl)c(C)nc(C)c1-c1ccc(Oc2ccc(Cl)cc2)cc1

>  <unitsSymbol>
%

>  <Inhibition>
98

$$$$

Query Br.CCCC1N=C(N)N=C(N)N1c1ccc(C)c(C)c1 (centres undefined) yields Inhibition of 95

Query COc1cccc(CNC[C@@H](O)[C@H](Cc2ccccc2)NC(=O)c2cc(N3CCCC3=O)c3[nH]cc(C(C)C)c3c2)c1 yields Inhibition of 96

Query CC(C)NC(=O)c1cccc(-c2cccc(OCCN3CCSCC3c3ccccc3)c2)c1 (centres undefined) yields Inhibition of 89

---

Test system: Plasmodium falciparum
Assay: GSK_TCMDC: Inhibition of Plasmodium falciparum 3D7 in whole red blood cells, using parasite LDH activity as an index of growth. Test compounds present at 2uM
Format: functional
propertyMeasured: Inhibition (%)
Provide only the numeric value, understood in %.

>  <compound>
Cc1cc(N[C@@H](Cc2ccccc2)C(=O)NCc2cccc(F)c2)nc(NCCc2ccc(F)cc2)n1.O=C(O)C(F)(F)F

>  <Inhibition / %>
99

$$$$
>  <compound>
Br.CCCC1N=C(N)N=C(N)N1c1cccc([N+](=O)[O-])c1 (stereo not drawn)

>  <Inhibition / %>
96

$$$$
>  <compound>
CC1CN(c2cnn(Cc3cccc(NC(=O)Nc4cccc(C(F)(F)F)c4)c3)c(=O)c2Cl)CC(C)N1.O=C(O)C(F)(F)F (stereo not drawn)

>  <Inhibition / %>
96

$$$$
>  <compound>
CCCc1cc(N2CCC(N3CCCC3)CC2)nc(Nc2ccc(Cl)cc2)n1

>  <Inhibition / %>
96

$$$$
>  <compound>
CCOC(=O)N1CCN(CCCNc2c3ccccc3nc3ccccc23)CC1.Cl

>  <Inhibition / %>
90

$$$$

// assay Plasmodium falciparum, entry COc1ccc2c(c1)OC(C)(C)CC2=NOS(=O)(=O)c1ccc(C)cc1 , Inhibition value = 97

// assay Plasmodium falciparum, entry Cc1ccc(Nc2nc3cc(N(C)c4ccnc(Nc5cccc(CCS(C)(=O)=O)c5)n4)ccc3n2C)cc1.O=C(O)C(F)(F)F , Inhibition value = 99

// assay Plasmodium falciparum, entry Cc1cc2cc(NC(=O)Nc3ccnc4ccccc34)ccc2n1C.Cl , Inhibition value = 90

// assay Plasmodium falciparum, entry Cc1cc(N[C@@H](Cc2ccccc2)C(=O)NCCOc2ccccc2)nc(NCCc2ccccn2)n1.O=C(O)C(F)(F)F , Inhibition value = 92
